Biological target: UniProt:Q86W56
Assay: Inhibition of human full length PARG using Bt-NAD ribosylated PARP1 substrate after 10 mins by TR-FRET assay
Listed molecules paired with reported log10(EC50)
Metric: log10(EC50) (log10 of the value in µM)

INSERT INTO assay_data (smiles_structure, metric, observed_value) VALUES
  ('CN(C)CCn1c(=O)n(C)c(=O)c2cc(S(=O)(=O)NC3(C)CC3)ccc21', 'log10(EC50)', 0.30),
  ('Cc1ncc(Cn2c(=O)c3cc(S(=O)(=O)NC4(C)CC4)ccc3n(CC3CC3)c2=O)s1', 'log10(EC50)', -1.72),
  ('Cc1ncc(Cn2c(=O)c3cc(S(=O)(=O)NC4(C)CC4)ccc3n(Cc3sc(C)nc3C)c2=O)s1', 'log10(EC50)', -2.32),
  ('Cn1c(=O)c2cc(S(=O)(=O)NC3(C)CC3)ccc2n(Cc2ccc(F)cc2)c1=O', 'log10(EC50)', -0.28),
  ('Cn1ccc(Cn2c(=O)c3cc(S(=O)(=O)NC4(C)CC4)ccc3n(C)c2=O)n1', 'log10(EC50)', 1.08);

----------
Molecular target: Poly(ADP-ribose) glycohydrolase (Homo sapiens)
Sequence (Q86W56 whole entry): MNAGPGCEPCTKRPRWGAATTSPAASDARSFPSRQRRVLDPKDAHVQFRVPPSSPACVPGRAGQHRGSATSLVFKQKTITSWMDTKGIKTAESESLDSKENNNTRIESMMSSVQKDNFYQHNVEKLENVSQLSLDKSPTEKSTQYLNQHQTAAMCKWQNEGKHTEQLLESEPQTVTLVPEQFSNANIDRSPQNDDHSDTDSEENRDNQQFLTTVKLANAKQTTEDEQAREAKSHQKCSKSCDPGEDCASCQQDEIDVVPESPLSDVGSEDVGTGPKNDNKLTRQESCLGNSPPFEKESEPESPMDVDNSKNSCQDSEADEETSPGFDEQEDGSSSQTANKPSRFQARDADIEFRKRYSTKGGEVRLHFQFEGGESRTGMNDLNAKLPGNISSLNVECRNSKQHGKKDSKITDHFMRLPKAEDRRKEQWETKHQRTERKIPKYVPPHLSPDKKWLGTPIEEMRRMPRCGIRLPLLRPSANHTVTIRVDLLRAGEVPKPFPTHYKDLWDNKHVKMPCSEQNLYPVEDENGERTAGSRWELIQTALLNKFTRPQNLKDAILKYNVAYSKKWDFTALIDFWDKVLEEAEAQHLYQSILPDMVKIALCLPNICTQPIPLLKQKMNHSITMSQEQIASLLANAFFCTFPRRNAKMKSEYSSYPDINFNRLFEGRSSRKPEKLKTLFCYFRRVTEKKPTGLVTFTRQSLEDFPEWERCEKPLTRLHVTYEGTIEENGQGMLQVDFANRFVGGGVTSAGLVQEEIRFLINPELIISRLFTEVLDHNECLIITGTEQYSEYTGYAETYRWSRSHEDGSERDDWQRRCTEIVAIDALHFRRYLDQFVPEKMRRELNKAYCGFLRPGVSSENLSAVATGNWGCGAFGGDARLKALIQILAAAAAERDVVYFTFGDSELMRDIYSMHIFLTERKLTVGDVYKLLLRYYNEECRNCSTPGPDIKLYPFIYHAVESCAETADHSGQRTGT
Assay: Inhibition of human full length PARG using Bt-NAD ribosylated PARP1 substrate after 10 mins by TR-FRET assay
pEC50: −log10 of the molar value.
pEC50 values by entry
Metric: pEC50

INSERT INTO measurements (smiles_structure, metric, observed_value) VALUES
  ('N#CC1(NS(=O)(=O)c2ccc3c(c2)C(=O)c2ccccc2C3=O)CC1', 'pEC50', 5.48),
  ('Cn1c(=O)n(-c2ccccc2)c(=O)c2cc(S(=O)(=O)NC3(C)CC3)ccc21', 'pEC50', 4.64),
  ('Cn1c(=O)n(Cc2ccsc2)c(=O)c2cc(S(=O)(=O)NC3(C)CC3)ccc21', 'pEC50', 4.70),
  ('Cc1cc(Cn2c(=O)n(Cc3nnc(C)s3)c(=O)c3cc(S(=O)(=O)NC4(C)CC4)ccc32)n(C)n1', 'pEC50', 7.19),
  ('COc1ccc(Cn2c(=O)n(C)c(=O)c3cc(S(=O)(=O)NC4(C)CC4)ccc32)cc1', 'pEC50', 6.35),
  ('Cn1c(=O)c2cc(S(=O)(=O)NC3(C)CC3)ccc2n(Cc2ccncc2)c1=O', 'pEC50', 5.62),
  ('Cn1c(=O)n(Cc2ccno2)c(=O)c2cc(S(=O)(=O)NC3(C)CC3)ccc21', 'pEC50', 5.92);

Where these numbers come from: ChEMBL document CHEMBL4261639
